# tested on: human GLP-1 receptor (human, UniProt P43220 24-463)
# test protocol: cell-based or functional assay
Starred links: 1 amine or outer side, 2 acyl side, 3 side chain; linkers in the order of their positions; H or OH if unused. Non-standard residues stand in square brackets, D forms with d. Groups on a side chain read outwards from the residue. No end group written: not given here. *: point of attachment. C18 diacid = O=C(O)CCCCCCCCCCCCCCCCC(=O)*; γGlu = O=C(O)[C@H](CCC(=O)[*:2])N[*:1]; AEEA = NCCOCCOCC(=O)O; Aib = CC(C)(N)C(=O)O; OEG = OEG spacer
Rule: EC50 hGLP1R 0.5% hP (CreLuc) below 0.1 nM gives satisfied. Equal to or above 0.1 nM gives not satisfied.

binder	assigned label
Y[Aib]EGTFTSDYSI[Aib]LEKQAQ[Aib]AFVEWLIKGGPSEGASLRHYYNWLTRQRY-NH2 (not fully specified (residue 28); also: TFA salt) [Compound 286]	not satisfied
Y[Aib]EGTFTSDYSI[Aib]LEKQAQ[Aib]AFVEWLIK([AEEA-γGlu-γGlu-γGlu-C18 diacid])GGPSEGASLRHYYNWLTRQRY-NH2 (also: TFA salt) [Compound 300]	not satisfied
Y[Aib]EGTFTSDYSI[Aib]LEKQAQ[Aib]AFVQWLIK([Glu-Glu-Glu-Glu-Glu-Glu-C18 diacid])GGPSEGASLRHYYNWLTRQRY-NH2 (also: TFA salt) [Compound 264]	not satisfied
Y[Aib]EGTFTSDYSI[Aib]LEKQAE[Aib]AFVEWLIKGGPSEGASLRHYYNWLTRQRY-NH2 (not fully specified (residue 28); also: TFA salt) [Compound 278]	not satisfied
Y[Aib]EGTFTSDYSI[Aib]LEKQAQ[Aib]AFVQWLIK([γGlu-γGlu-γGlu-γGlu-C18 diacid])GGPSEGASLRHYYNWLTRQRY-NH2 (also: TFA salt) [Compound 268]	satisfied
Y[Aib]EGTFTSDYSI[Aib]LEKQAQ[Aib]AFVEWLIK([OEG-OEG-Glu-Glu-Glu-C18 diacid])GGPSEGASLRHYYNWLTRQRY-NH2 (also: TFA salt) [Compound 298]	not satisfied
Y[Aib]EGTFTSDYSI[Aib]LEKQAE[Aib]AFVEWLIK([γGlu-γGlu-γGlu-γGlu-C18 diacid])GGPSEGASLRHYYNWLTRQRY-NH2 (also: TFA salt) [Compound 262]	not satisfied
Y[Aib]EGTFTSDYSI[Aib]LEKQAQ[Aib]AFVQWLIK([Glu-Glu-Glu-Glu-C18 diacid])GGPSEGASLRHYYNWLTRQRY-NH2 (also: TFA salt) [Compound 281]	satisfied
